Each entry below carries its reported Emax.
# tgt: SIRT1 (Homo sapiens, UniProt Q96EB6)
# Sequence (Q96EB6 whole entry): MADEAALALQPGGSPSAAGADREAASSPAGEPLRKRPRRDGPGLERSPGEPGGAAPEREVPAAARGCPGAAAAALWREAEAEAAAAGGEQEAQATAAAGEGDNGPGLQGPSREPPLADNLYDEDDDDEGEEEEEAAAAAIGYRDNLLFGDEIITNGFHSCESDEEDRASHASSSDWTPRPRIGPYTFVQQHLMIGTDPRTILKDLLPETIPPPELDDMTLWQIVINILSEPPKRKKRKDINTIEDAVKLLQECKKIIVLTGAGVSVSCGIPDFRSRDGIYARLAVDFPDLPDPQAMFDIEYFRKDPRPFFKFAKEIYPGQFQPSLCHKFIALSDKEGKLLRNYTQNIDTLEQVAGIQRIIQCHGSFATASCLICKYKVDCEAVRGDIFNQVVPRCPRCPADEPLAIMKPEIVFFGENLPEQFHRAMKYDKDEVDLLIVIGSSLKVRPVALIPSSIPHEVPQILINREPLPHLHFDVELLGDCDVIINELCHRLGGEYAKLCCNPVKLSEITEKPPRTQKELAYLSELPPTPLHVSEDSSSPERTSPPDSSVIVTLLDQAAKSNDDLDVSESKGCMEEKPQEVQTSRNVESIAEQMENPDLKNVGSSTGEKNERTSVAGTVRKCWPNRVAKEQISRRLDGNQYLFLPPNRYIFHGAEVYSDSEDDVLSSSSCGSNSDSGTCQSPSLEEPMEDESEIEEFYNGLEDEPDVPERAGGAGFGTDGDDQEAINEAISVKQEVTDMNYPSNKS
# assay procedure: TAMRA based mass spectrometry assay of SIRT1 activity
# Type: biochemical
# conditions: TAMRA assay; percent maximum fold activation; read-out: TAMRA % Fold Act
recorded metric: Emax

# compound, result
data = [
    ("O=C(Nc1ncc(F)cc1F)c1cnn2ccc(-c3ccccc3OC(F)(F)F)nc12 [Compound 690]", "< 350%"),
    ("Cc1nc(NC(=O)c2c(C)nn3ccc(-c4ccccc4C(F)(F)F)nc23)sc1C [Compound 651]", "≥ 350%"),
    ("Cc1ncccc1NC(=O)c1c(C)nn2ccc(-c3ccccc3C(F)(F)F)nc12 [Compound 699]", "< 350%"),
    ("Cc1ccc(NC(=O)c2cnn3ccc(-c4ccccc4OC(F)(F)F)nc23)c(C)n1 [Compound 625]", "< 350%"),
    ("CCOc1n[nH]c(NC(=O)c2c(C)nc3ccc(-c4ccccc4C(F)(F)F)nn23)n1 [Compound 676]", "≥ 350%"),
    ("O=C(Nc1cccnc1)c1cnn2ccc(-c3ccccc3C(F)(F)F)nc12 [Compound 239]", "≥ 350%"),
    ("O=C(Nc1cccc(OCC(O)CO)n1)c1c(O)nc2ccc(-c3ccccc3C(F)(F)F)nn12 (centres unmarked) [Compound 344]", "< 350%"),
    ("O=C(Nc1cnc2ccc(-c3ccccc3OC(F)(F)F)nn12)c1cccc(OCC(O)CO)n1 (centres unmarked) [Compound 323]", "≥ 350%"),
    ("Cc1nc(C(=O)Nc2cnc3ccc(-c4ccccc4C#N)nn23)cs1 [Compound 333]", "≥ 350%"),
    ("CCNc1cccc(NC(=O)c2cnc3ccc(-c4ccccc4Cl)nn23)n1 [Compound 326]", "≥ 350%"),
    ("COc1cccc(NC(=O)c2cnc3ccc(-c4ccccc4F)nn23)n1 [Compound 244]", "< 350%"),
    ("COCCOc1cc(NC(=O)c2cnc3ccc(-c4ccccc4C(F)(F)F)nn23)ncn1 [Compound 663]", "≥ 350%"),
    ("O=C(Nc1ccnc(OCC(F)(F)F)c1)c1cnc2ccc(-c3ccccc3C(F)(F)F)nn12 [Compound 296]", "< 350%"),
    ("Cc1ccc(NC(=O)c2c(C)nn3ccc(-c4ccccc4C(F)(F)F)nc23)c(C)n1 [Compound 698]", "≥ 350%"),
    ("Cc1csc(NC(=O)c2cnn3ccc(-c4ccccc4OC(F)(F)F)nc23)n1 [Compound 702]", "≥ 350%"),
    ("Cc1c(-c2ccccc2C(F)(F)F)nn2c(C(=O)Nc3cccc(N4CCOCC4)n3)cnc2c1C [Compound 227]", "≥ 350%"),
    ("Cc1cnc(NC(=O)c2cnn3ccc(-c4ccccc4C(F)(F)F)nc23)cn1 [Compound 723]", "≥ 350%"),
]
